SYSTEM NAME: bovine α-chymotrypsin (Bos taurus, UniProt P00766, DEL14-15/DEL147-148)
METHOD: Inhibition of chymotrypsin, chromogenic substrate hydrolysis assay
EXPERIMENTAL READOUT: IC50

- COC(=O)c1nc(N)n(C(=O)c2ccc(C(C)(C)C)cc2)n1: > 1000 µM

----------
SYSTEM NAME: human FXIIa (Homo sapiens, UniProt P00748)
Sequence (P00748 20-615): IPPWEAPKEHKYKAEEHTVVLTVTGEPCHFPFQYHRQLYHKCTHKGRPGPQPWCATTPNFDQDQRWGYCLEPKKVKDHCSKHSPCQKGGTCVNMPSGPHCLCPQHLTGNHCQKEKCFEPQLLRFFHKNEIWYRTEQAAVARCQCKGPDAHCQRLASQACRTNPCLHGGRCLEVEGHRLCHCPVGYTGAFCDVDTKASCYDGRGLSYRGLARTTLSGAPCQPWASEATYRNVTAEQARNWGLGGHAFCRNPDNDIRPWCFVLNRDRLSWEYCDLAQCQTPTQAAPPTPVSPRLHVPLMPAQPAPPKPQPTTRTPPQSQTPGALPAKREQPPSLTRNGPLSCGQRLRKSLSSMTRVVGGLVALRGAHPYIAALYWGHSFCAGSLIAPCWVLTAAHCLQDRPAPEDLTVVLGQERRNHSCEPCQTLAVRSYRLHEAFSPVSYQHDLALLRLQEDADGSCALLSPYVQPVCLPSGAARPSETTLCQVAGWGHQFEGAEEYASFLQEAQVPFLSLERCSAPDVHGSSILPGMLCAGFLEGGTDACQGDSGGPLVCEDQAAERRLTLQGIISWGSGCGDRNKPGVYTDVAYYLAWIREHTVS
METHOD: Inhibition of FXIIa-mediated activation of FXI to FXIa
Type: biochemical
EXPERIMENTAL READOUT: IC50

- COC(=O)c1nc(N)n(C(=O)c2ccc(C(C)(C)C)cc2)n1: ~2 µM

----------
SYSTEM NAME: human FXIIa (Homo sapiens, UniProt P00748)
METHOD: Direct inhibition of human FXIIa, chromogenic substrate hydrolysis assay
Assay type: biochemical
CONDITION DESCRIPTION: human FXIIa, pH 7.4, 37 °C; ± 1 S.E.
EXPERIMENTAL READOUT: DeltaY (efficacy of inhibition) (%)

* CNC(=O)c1nc(N)n(C(=O)c2ccc(C(C)(C)C)cc2)n1 | 103
* CC(C)(C)c1ccc(C(=O)n2nc(C(=O)O)nc2N)cc1 | 122.4
* CC(C)(C)c1ccc(C(=O)n2ncnc2N)cc1 | 82.1
* COC(=O)c1nc(N)n(C(=O)c2ccccc2)n1 | 92.2

----------
SYSTEM NAME: human FXIIa (Homo sapiens)
METHOD: Direct inhibition of human FXIIa, chromogenic substrate hydrolysis assay
Assay type: biochemical
CONDITION DESCRIPTION: human FXIIa, pH 7.4, 37 °C; ± 1 S.E.
EXPERIMENTAL READOUT: HS (Hill slope)

• CNC(=O)c1nc(N)n(C(=O)c2ccc(C(C)(C)C)cc2)n1 [Inhibitor 5] = 1.26
• COC(=O)c1nc(N)n(C(=O)c2ccc(C(C)(C)C)cc2)n1 [Inhibitor 1] = 1.7
• CC(C)(C)c1ccc(C(=O)n2nc(C(=O)O)nc2N)cc1 [Inhibitor 4] = 1.05
• CC(C)(C)c1ccc(C(=O)n2ncnc2N)cc1 [Inhibitor 3] = 1.37
• COC(=O)c1nc(N)n(C(=O)c2ccccc2)n1 [Inhibitor 2] = 1.09

----------
SYSTEM NAME: FVIIa/tissue factor (Homo sapiens)
Sequence (P08709 61-466): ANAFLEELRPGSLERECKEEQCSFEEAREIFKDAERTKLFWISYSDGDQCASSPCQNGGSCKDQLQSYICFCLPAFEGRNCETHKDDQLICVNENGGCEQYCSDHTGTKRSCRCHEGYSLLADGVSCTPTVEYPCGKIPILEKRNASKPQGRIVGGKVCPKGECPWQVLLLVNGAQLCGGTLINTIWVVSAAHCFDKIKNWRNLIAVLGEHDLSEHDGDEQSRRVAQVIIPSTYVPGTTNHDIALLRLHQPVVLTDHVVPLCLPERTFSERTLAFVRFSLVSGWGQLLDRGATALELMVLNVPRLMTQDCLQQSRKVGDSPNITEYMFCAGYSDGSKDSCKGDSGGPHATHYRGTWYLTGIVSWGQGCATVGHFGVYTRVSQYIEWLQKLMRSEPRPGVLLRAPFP
METHOD: Inhibition of FVIIa/tissue factor, chromogenic substrate hydrolysis assay
pIC50: −log10 of the molar value.
EXPERIMENTAL READOUT: pIC50

* COC(=O)c1nc(N)n(C(=O)c2ccc(C(C)(C)C)cc2)n1 | < 3.00

----------
SYSTEM NAME: human FXIIa (Homo sapiens)
METHOD: Direct inhibition of human FXIIa, chromogenic substrate hydrolysis assay
Format: biochemical
CONDITION DESCRIPTION: IC50, human FXIIa, Tris-HCl buffer pH 7.4, 37 °C; ± 1 S.E.
pIC50: −log10 of the molar value.
EXPERIMENTAL READOUT: pIC50

* CC(C)(C)c1ccc(C(=O)n2nc(C(=O)O)nc2N)cc1 | 3.16

----------
SYSTEM NAME: human plasma kallikrein (Homo sapiens)
Sequence (P03952 20-638): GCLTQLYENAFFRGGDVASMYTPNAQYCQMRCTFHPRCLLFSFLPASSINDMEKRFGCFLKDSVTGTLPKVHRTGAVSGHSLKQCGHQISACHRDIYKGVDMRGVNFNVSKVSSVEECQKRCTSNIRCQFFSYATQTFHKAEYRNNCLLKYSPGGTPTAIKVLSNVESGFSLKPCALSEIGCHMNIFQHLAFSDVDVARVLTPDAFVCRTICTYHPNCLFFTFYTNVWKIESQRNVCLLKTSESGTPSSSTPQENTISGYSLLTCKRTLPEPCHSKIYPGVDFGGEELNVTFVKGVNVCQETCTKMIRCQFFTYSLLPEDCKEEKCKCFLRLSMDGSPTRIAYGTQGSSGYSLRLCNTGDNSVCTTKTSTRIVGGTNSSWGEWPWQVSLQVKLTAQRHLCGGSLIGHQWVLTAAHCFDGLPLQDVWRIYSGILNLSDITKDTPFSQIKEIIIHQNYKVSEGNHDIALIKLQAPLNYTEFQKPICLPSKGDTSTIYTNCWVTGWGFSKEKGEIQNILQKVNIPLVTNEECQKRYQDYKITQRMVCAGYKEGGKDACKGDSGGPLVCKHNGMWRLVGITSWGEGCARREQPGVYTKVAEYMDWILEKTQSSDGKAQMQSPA
METHOD: Inhibition of plasma kallikrein, chromogenic substrate hydrolysis assay
EXPERIMENTAL READOUT: IC50

• COC(=O)c1nc(N)n(C(=O)c2ccc(C(C)(C)C)cc2)n1 [Inhibitor 1] = > 500 µM

----------
Target chain: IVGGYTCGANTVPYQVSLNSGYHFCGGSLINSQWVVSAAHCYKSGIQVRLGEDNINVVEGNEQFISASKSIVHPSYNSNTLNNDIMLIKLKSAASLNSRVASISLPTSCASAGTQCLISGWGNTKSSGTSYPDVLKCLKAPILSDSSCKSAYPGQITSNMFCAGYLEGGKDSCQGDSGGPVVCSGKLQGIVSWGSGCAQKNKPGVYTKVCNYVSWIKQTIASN
EXPERIMENTAL READOUT: IC50

* COC(=O)c1nc(N)n(C(=O)c2ccc(C(C)(C)C)cc2)n1 | > 1000 µM

----------
SYSTEM NAME: human plasmin (Homo sapiens)
Sequence (P00747 97-810): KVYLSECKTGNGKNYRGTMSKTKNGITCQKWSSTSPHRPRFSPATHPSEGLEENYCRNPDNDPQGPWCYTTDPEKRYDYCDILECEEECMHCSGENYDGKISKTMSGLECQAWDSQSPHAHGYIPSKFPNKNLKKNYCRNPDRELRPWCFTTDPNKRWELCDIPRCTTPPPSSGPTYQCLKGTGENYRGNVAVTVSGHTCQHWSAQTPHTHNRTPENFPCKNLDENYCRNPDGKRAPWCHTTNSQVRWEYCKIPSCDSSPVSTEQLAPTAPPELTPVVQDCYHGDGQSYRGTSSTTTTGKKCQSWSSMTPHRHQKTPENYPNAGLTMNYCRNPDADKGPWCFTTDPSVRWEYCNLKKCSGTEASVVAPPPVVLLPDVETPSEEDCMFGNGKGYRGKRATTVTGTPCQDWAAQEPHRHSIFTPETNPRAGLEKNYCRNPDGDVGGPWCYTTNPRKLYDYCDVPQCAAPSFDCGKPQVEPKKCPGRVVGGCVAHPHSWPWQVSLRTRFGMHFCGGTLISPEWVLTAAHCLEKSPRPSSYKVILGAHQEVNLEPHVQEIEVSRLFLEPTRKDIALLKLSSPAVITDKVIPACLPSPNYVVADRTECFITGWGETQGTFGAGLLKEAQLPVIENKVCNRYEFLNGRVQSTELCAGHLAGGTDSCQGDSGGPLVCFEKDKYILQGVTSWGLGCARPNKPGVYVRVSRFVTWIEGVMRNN
EXPERIMENTAL READOUT: IC50

- COC(=O)c1nc(N)n(C(=O)c2ccc(C(C)(C)C)cc2)n1: 83.2 µM

----------
SYSTEM NAME: FIXa (Homo sapiens, UniProt P00740, DEL192-226)
METHOD: Inhibition of FIXa, chromogenic substrate hydrolysis assay
pIC50: −log10 of the molar value.
EXPERIMENTAL READOUT: pIC50

• COC(=O)c1nc(N)n(C(=O)c2ccc(C(C)(C)C)cc2)n1 = < 3.00

----------
SYSTEM NAME: FXa (Homo sapiens, UniProt P00742, DEL180-234)
METHOD: Inhibition of FXa, chromogenic substrate hydrolysis assay
pIC50: −log10 of the molar value.
EXPERIMENTAL READOUT: pIC50

• COC(=O)c1nc(N)n(C(=O)c2ccc(C(C)(C)C)cc2)n1 = < 3.24

----------
SYSTEM NAME: UniProt P00748
EXPERIMENTAL READOUT: Kd (nM)

* COC(=O)c1nc(N)n(C(=O)c2ccc(C(C)(C)C)cc2)n1 | 980

----------
SYSTEM NAME: human FXIIa (Homo sapiens)
METHOD: Direct inhibition of human FXIIa, chromogenic substrate hydrolysis assay
Type: biochemical
CONDITION DESCRIPTION: human FXIIa, Tris-HCl buffer pH 7.4, 37 °C; ± 1 S.E.
EXPERIMENTAL READOUT: IC50 (µM)

- CNC(=O)c1nc(N)n(C(=O)c2ccc(C(C)(C)C)cc2)n1: 340

----------
SYSTEM NAME: FXIa (Homo sapiens)
Sequence (P03951 19-625): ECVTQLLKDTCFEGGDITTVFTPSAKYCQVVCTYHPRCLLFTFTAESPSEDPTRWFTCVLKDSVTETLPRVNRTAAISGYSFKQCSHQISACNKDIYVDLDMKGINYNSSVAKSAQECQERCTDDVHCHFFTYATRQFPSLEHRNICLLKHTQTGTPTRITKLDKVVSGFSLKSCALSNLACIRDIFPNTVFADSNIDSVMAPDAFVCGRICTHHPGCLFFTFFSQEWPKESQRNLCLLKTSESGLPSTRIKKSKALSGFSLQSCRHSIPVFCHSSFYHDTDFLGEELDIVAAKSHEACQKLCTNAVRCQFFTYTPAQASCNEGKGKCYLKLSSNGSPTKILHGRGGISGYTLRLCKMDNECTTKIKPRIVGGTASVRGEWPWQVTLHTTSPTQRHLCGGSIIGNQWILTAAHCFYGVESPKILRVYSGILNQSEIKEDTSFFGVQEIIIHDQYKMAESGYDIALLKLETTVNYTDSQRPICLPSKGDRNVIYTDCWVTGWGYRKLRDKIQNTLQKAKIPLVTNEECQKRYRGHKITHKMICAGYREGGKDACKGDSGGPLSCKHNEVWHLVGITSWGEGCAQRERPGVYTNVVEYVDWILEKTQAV
EXPERIMENTAL READOUT: IC50

- COC(=O)c1nc(N)n(C(=O)c2ccc(C(C)(C)C)cc2)n1 [Inhibitor 1]: 16.8 µM

Reference for the values: paper PMC10249145
